protocol-details: Antioxidant activity assessed as hydroxy radical-scavenging activity
Format: physicochemical
Listing of recorded IC50 by entry.
# do not omit the unit; it follows the number

compound=O=C1O[C@@H]2O[C@@H]3COC(=O)c4cc(O)c(O)c(O)c4-c4c(cc(O)c(O)c4O)C(=O)O[C@H]3[C@H](OC(=O)c3cc(O)c(O)c(O)c3)[C@H]2OC(=O)c2cc(Oc3c(C(=O)O[C@H]4[C@H](OC(=O)c5cc(O)c(O)c(O)c5)O[C@H](CO)[C@@H](O)[C@@H]4OC(=O)c4cc(O)c(O)c(O)c4)cc(O)c(O)c3O)c(O)c(O)c2Oc2cc1cc(O)c2O observed_result="16.3 µM"

The record that follows has no IC50 shown yet.
What does the data say about its IC50? Entry: O=C1O[C@@H]2O[C@H](CO)[C@@H](O)[C@H](OC(=O)c3cc(O)c(O)c(O)c3)[C@H]2OC(=O)c2cc(Oc3c(C(=O)O[C@H]4C(O)O[C@@H]5COC(=O)c6cc(O)c(O)c(O)c6-c6c(cc(O)c(O)c6O)C(=O)O[C@H]5[C@@H]4OC(=O)c4cc(O)c(O)c(O)c4)cc(O)c(O)c3O)c(O)c(O)c2Oc2cc1cc(O)c2O (some centres not stated) 15.8 µM
